experiment-summary: melting temperature (DSF); higher = more thermostable
Provide the recorded melting temperature for the entries that follow.
Answer format: value, then unit.

Query: Please list melting temperature recorded for the sequence ADNPYQRGPDPTPASVSANRGTFATAQISVPAGNGFGGGVIYHPTDTSQGTFGAIAVVPGYTATWAAEGAWMGHWLASFGFVVIGIDTNSRNDWDTARGTQLLAALDYLTQRSPVRDRVDANRTAVMGHSMGGGGAMHAALQRPSLKAAIGLAPFSPSQNLTTTRVPTMLLAGQSDTTTTPASILNLYNGIPAATEKAYLELTGAGHGFPTSNNPTMMRNVIPWLKIFVDSDTRYTQFLCSLSNWDGIRAYQSTCPLVPSPVPTTTSTTSTTTTISTTTTTPAPGDACSATYRTTNSWPGGYQAEVTVTAGNTAVNGWNVQWTLGSGQTVTQVWNGTLNVSGSTASVRNASYNGSLQANTSTTFGFIGGGTPPTSSLSCTSP [ESM035]
Reply: 57.4 C

Query: Please list melting temperature recorded for the sequence AIEHRRGPAPSEQSVLAANGPFSHSTFAVSDAASAKFGKGTIYYPNDTSQGTFGGVAISPGYTSTEPHIAWLGTRLAAHGFVTITITTNSLYDNPTERGQQLLAALDYLANNAPLAIRQRLDTSRMGVVGHSMGGGGSLYAVWNRPALKAAVPLAPYHTIKNWSGIKTPTMIIGGSADGVAPVEEHSERFYSSMTYARERAYAELEGANHSGSFLFEDHPIIGKFTVAWLKRFIDGDTRYDQFLCPPPTGAYLTEYRASCPHA [DP006]
Reply: 46.9 C

###

experiment-summary: PET hydrolysis, aromatic products released after 48 h (umol product/mg enzyme); higher = more PET depolymerization activity
recorded-conditions: substrate: aFilm; 40 °C; pH 7.5
Provide the recorded PET hydrolysis for the entries that follow.

Query: Please list PET hydrolysis recorded for the sequence CVTPAPPPAPDVATVTVGAGNGFGGGTIYYPQGATGRLPVVAASPGFTENQNAVGWYGPLLAREGNIVITIDTNSPFDSPTSRADQLLAAIDYVVNRSSVASIADGSRTAVMGHSMGGGGSLEAALKRPGLKAIIPLAPWNTTTNFSGVRVPTLIVGCQNDAIAPVGSHAEPFYQSIPATTPKAYLEIAGGDHFCTNSENPTIANYVVAWTDRFLQGDTSASSRLCPPPPAGGSISEYRANCPY [ESM050]
Reply: 7.5

Query: Please list PET hydrolysis recorded for the sequence ADNPYERGPAPTEASVEAPRGPYAVSETTVSPLAVTGFGGGTVYYPTSTADGTFGAIAVSPGYTGTQSSIAWLGPRLASQGFVVFTIDTLTTLDQPDSRGRQLLAALDYLTQKSSVRGRIDSTRLGVMGHSMGGGGSLEAAKSRPSLQAAIPLTPWNLDKTWPEVATPTLIFGADGDTIAPVATHAEPFYTSLPASLDRAYLELNGATHFTPNTSNTTIAKYSIAWLKRFIDDDTRYEQFLCPLPRPGLTIEEYRGNCPHTS [TEP117]
Reply: < 3

Query: Please list PET hydrolysis recorded for the sequence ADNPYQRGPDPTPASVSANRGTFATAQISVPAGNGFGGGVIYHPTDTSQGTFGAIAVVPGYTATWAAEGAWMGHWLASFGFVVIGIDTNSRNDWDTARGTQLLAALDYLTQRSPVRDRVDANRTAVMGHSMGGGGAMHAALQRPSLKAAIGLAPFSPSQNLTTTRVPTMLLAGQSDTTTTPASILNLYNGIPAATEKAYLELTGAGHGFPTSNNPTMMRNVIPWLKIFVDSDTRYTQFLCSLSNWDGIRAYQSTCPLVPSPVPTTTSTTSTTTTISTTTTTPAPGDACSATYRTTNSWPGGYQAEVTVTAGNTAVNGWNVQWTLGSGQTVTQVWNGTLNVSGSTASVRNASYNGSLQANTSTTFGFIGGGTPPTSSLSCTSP [ESM035]
Reply: < 3

Query: Please list PET hydrolysis recorded for the sequence ADNPYQRGPDPTRTSVTAVNGPFANTSVSVPTGHGFNGGRIYYPTDTSQGTFGAIAISPGYTALFSAELAWMGPWLASHGFVVIGIETNSRNDFDTARGTQLLAALDYLTQQSPVRDRVDPSRLAVSGHSMGGGGALSAAMRRASLKAVVGITPYSPSSNLANDRVPTMIISGQADTVVTPSYALGLYNSIPATTESVYLEVAGGDHGFMVGRSNPVLVRTMLPFLKMFIDNDTRYSQFLCPLLDNSGVVTYRSTCPLLPTDPTTPPTGTPTPTPTTPAPTTPPPTTPPGSASEIRGTQSNRCIDVPNASRNNGTRVQLYDCNRQTNQAWTYTANKQLQVYGNMC [ESM106]
Reply: < 3

Query: Please list PET hydrolysis recorded for the sequence AEAADNPYQRGPDPTLASVAATRGPFATAQATVPAGNGFNGGYVYYPTDTSLGTWGAVAIVPGYSALFADEEAWMGPWLASFGFVVLGIETNSRTDGADARATQLLAALDYLTQSSPVRHRVDANRLGVMGHSAGGAGTLMAALRRPSLKSAVGLAPGAPGNSLNMSTTQVPTMLISGQNDGTVTPSYVQGIYNTLPATVEHAWAELAGNDHLSFTRPNPTEMRILIPWLKIFLDNDTRYTQFLCPLADSTGVSRYSATCPLVPPGGPTAPPTVTPPPPTPTTPSPTTPPTSAACTATYRTVNSWSGGFQGEVTVTAGRAAINGWTVRWDLGNGQSISQVWNGTLSTSGSTATVRNVSYNGSLAPAASTGFGFLGTGAPAIPRLTCTSP [ESM037]
Reply: < 3

###

Provide the recorded PET hydrolysis for the entries that follow.
experiment-summary: PET hydrolysis, aromatic products released after 48 h (umol product/mg enzyme); higher = more PET depolymerization activity
recorded-conditions: substrate: cryPow; 60 °C; pH 7.5
The answer should be a number; do not append a unit.

Query: Please list PET hydrolysis recorded for the sequence MPPPPPPPPPVQTVTVEPGYGFGGGTIYYPQESTGRLPVVAAVPGFTETQEAVAWYGPLLARRGNIVITIDTISPTNAPKTRADQALAAIDYVVTQSAVSDIADASRTAVMGHSMGGGASLFAALKRPTLKAIVPLAPWARTTDFSGVAVPTLIVGCENDGIAAVGTYAEPFYESIPATTPKAYLEMAGGNHYCTNSEDPVIAGYVSAWTDRFLKGDTTASSRLCPPSPVGPISEYRSNCPY [TEP189]
Reply: 22

Query: Please list PET hydrolysis recorded for the sequence ANPYERGPAPTKASIEATTGYFATAKVTVAKSSVSGFGGGTIYYPTSTTSGTFGAIALVPGFTNVQSAVAWLGPRVASQGFVVFIIDTNSVYDSPDSRGTQLLAALDYLTNTSTVKSRVDATRLGVMGYSMGGGGALSATKTRTSIKASVPMAPYHSTKTWTTVKTPTLIVTGQSDTTAPPASHGLAFYNSLSTSIDKAYMELKGAGHSAPTSANTTIAKYSISWFKRFIDDDTRYDQFLCPNPTDTTISSYKSTCNYS [DP082]
Reply: 22

###

experiment-summary: PET hydrolysis, aromatic products released after 48 h (umol product/mg enzyme); higher = more PET depolymerization activity
recorded-conditions: substrate: cryPow; 40 °C; pH 6.5
experimental-readout: PET hydrolysis
The answer should be a number; do not append a unit.

Query: Please list PET hydrolysis recorded for the sequence ADNPYQRGPDPTRTSVAAVNGPFANTSVSVPTGYGFNGGRIYYPTDTSQGTFGAIAISPGYTALFSAELAWMGPWLASHGFVVIGIETNSRNDFDTARGTQLLAALDYLTQQSPVRDRVDPNRLAVSGHSMGGGGALSAAIRRSSLKAVVGIAPYSPSSNLANDRVPTMIFSGQADTVVTPSYATGLYNSLPATTESVYLEVAGADHGFMVGRSNPVMIRTMLPFVKMFIDNDTRYSQFLCPLLDSSGVVTYRSTCPLLPPAPTTPPPTGTPTPTPSSNPTTPPTTPPSTPTA [ESM061]
Reply: 5

Query: Please list PET hydrolysis recorded for the sequence APGPSAPCSNCTRGPNPTEASLKSDRGPFTTARFSVSGFLKGFGDSTVYYPTNTTGRMGAIAVIPGYLSYESSIEWWGPRLASHGFVVMTMNTSTIYDQPDSRATQLSKALDYLIAQSNTSSSPIYNKIDSTRLGAIGWSMGGGGSLKLSTQRSLNAIIPQAPWYSGSNSFNTIKTPALILACSADTVAPVSVHASPFYNRIPGSTPKAFLEIYGGSHFCANSGYPNEDLLGLYGIAWMKRFIDFDNRYSQFLCGPNHEGDFAISDYRQNCPY [ESM096]
Reply: 6

Query: Please list PET hydrolysis recorded for the sequence NPYERGPAPTTSSIEASRGSFATSTTTVSRLAVSGFGGGTIYYPTSTASGTFGAVSIAPGFTATQSSMAWLGPRLASQGFVVFTIDTITTSDQPDSRGRQLLSSLDYLTQQSSVRSRIDSSRLGVVGHSMGGGGTLEAARSRPSLQAAVPLTGWNLTKSWSTVRVPTLVVGAQADTVAPVASHSIPFYTSLPSSLDKAYLELRGASHFAPNSANTTIAKYTLSWLKRFIDDDTRYEQFLCPIPGTSTTISDYRGNCPHAG [ESM140]
Reply: 22

Query: Please list PET hydrolysis recorded for the sequence AGFEKGPDPTTASVTADRGSYDIAQVDVPKGSGTGFADGTIYYPKSTADGTFGAVAVIPGFLEPKSAIDWYGPRLASQGFVVMTLDTTSVFDTPDSRGGQLLAALDYLTSKSTVKDRIDPNRLAVVGHSMGGGGTLSAAANRPNLKAAVALAPWHVSAPLTSVKTPTMIFGSDNDFIAPDGTFAKPFYDGISNAPEKAYVRLKNAGHMAYVFPDKRIAEYTLSWLKRYVDDDTRYTQFLCPGPTNESTIAAYKSTCPM [DP093]
Reply: 1.5

Query: Please list PET hydrolysis recorded for the sequence DTNPFQRGPAPTEASVSAQKGPFATAQVNVPANSGEGFNDGTIYYPTDTSQGTFGAIAVMPGFLSPQDWIRWYGPTLASQGFVVMTLDSKGFIDSPTARGNQLLAALDYLTTKSKVVDRIDTSRLGVVGWSMGGGGALESTYNRPSLKADVALAPWHVGLDQSKITVPSLILADDNDWLAPTGSFAKPFYAGIPESTNKAFIELKNANHFTFTGYNKNIAKYAVSWLKRFVDDDTRYDQFLCPKPATNNEISQSEETCPLH [DP054]
Reply: 7
